Assay: qHTS assay to identify small molecule agonists of the peroxisome proliferator-activated receptor delta (PPARd) signaling pathway - cell viability counter screen (AID 743211); also: nearly all actives have a fitted effect of over 55% in size
Settings: PPARd-bla HEK293H viability, CellTiter-Glo luminescence, 17 h; series mostly up to 62.6 µM
Records with an inconclusive call do not appear. Calls of active or inactive are those of the source. Calls follow the shape of the dose curve; as a rule, active = well fitted cell-killing curve with a large enough effect in the repeat runs; inconclusive = weak or mixed curves; inactive = no such curve, though single readings can be large or run the other way.
# output must be one of class 1 (active), class 0 (inactive)

Known results for compounds:
>>> print(df.to_string())
                                   compound    label
0  O=C(O)CCN(C1(C(=O)NO)CCCC1)S(=O)(=O)c1ccc(Oc2ccc(F)cc2)cc1  class 0
1  C#CC1(O)CC[C@H]2[C@@H]3CCC4=CCCC[C@@H]4[C@H]3CC[C@@]21C (some centres not stated)  class 1
2  C=CC(C)(CCC=C(C)C)OC=O (configuration not stated)  class 0

Give the logged outcome of this assay for the following compound: C=CCCC(=O)/C=C/C1C(C)=CCCC1(C)C (configuration not stated)
class 0

In this assay, the call recorded for OC[C@H]1O[C@H](O[C@H]2O[C@H](CO)[C@@H](O)[C@H](O)[C@H]2O)[C@H](O)[C@@H](O)[C@@H]1O was what?
class 0

Short answer needed: outcome of this test for O=C1CCc2ccc(OCCCCN3CCN(c4cccc(Cl)c4Cl)CC3)cc2N1 ?
class 1

* * *

Assay: qHTS assay to identify small molecule antagonists of the estrogen receptor alpha (ER-alpha) signaling pathway using the BG1 cell line - cell viability counter screen (AID 743081);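 also: compound given together with 17beta-estradiol as the ER stimulus; nearly all actives have a fitted effect of over 45% in size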; also: potency is read from the fitted curve at half-maximal effect
Settings: BG1Luc4E2 viability, CellTiter-Fluor, 22 h; series mostly up to 70.3 µM
Inconclusive results are not listed. The source made the active and inactive calls. Calls follow the shape of the dose curve; as a rule, active = well fitted cell-killing curve with a large enough effect in the repeat runs; inconclusive = weak or mixed curves, or effect the other way; inactive = flat fitted curve, though single readings scatter.
PROPERTY: Potency

Guide cases for Potency, answers given:
>>> print(df.to_string())
                                   molecule  property       test_result
0            Cc1c2ccccc2c(C)c2c1ccc1ccccc12   Potency          inactive
1  CC(=O)Oc1cc2c(s1)CCN(C(C(=O)C1CC1)c1ccccc1F)C2 (stereo not drawn)   Potency          inactive
2  O=C1OC2(c3ccc(O)cc3Oc3cc(O)ccc32)c2ccc(N=C=S)cc21   Potency          inactive
3  CN1CCN2c3ccccc3Cc3ccccc3C2C1 (stereo not drawn)   Potency  26.6 µM (active)
4  Cc1cc(-c2ccc(N=Nc3cc(S(=O)(=O)O)c4ccccc4c3N)c(C)c2)ccc1N=Nc1cc(S(=O)(=O)O)c2ccccc2c1N   Potency  30.8 µM (active)

Given the molecule O=C(/C=C/c1ccc(O)c(O)c1)O[C@@H](C(=O)O)[C@@H](OC(=O)/C=C/c1ccc(O)c(O)c1)C(=O)O , what is its reported Potency?
inactive

What does the data say about its Potency? Entry: CCC(=O)OC(=O)CC
inactive

Quick check: Potency of CCOC(=O)c1ccc(C2CCC(NC[C@H](O)COc3ccc(O)c(NS(C)(=O)=O)c3)CC2)cc1 (stereo partly drawn) ?
inactive

* * *

Target: Nuclear receptor ROR-gamma (Homo sapiens) (UniProt P51449)
Test: qHTS assay to identify small molecule antagonists of the retinoid-related orphan receptor gamma (ROR-gamma) signaling pathway (AID 1159521; also: nearly all actives have a fitted effect of over 50% in size)
Conditions: Tet-on RORgamma CHO cells, RORE-luciferase, 16 h; series mostly up to 92.4 µM
Inconclusive results are not listed. Calls of active or inactive are those of the source. The call rests on the fitted dose curve; in most records, active means well fitted inhibition curve with a large enough effect in the repeat runs; inconclusive means weak or mixed curves, or effect the other way; inactive means no such curve, though single readings can be large or run the other way.
// classify into YES for active, NO for inactive

In [3]: df
Out[3]:
                                   molecule                           target_of_assay  label
0            O=[N+]([O-])c1cccc(C(F)(F)F)c1  Nuclear receptor ROR-gamma (Homo sapiens) (UniProt P51449)     NO
1                         Cc1ccc(C(=O)O)cc1  Nuclear receptor ROR-gamma (Homo sapiens) (UniProt P51449)     NO
2                    C=C(C)C(=O)OCCCCCCCCCC  Nuclear receptor ROR-gamma (Homo sapiens) (UniProt P51449)     NO
3  CCOC(=O)Cn1cccc1-c1nc(-c2ccc(OC)cc2)c(-c2ccc(OC)cc2)s1  Nuclear receptor ROR-gamma (Homo sapiens) (UniProt P51449)     NO
4  CN1CCN(Cc2cc(-c3ccc4[nH]c(=O)oc4c3)co2)[C@@H](c2ccc(F)cc2)C1  Nuclear receptor ROR-gamma (Homo sapiens) (UniProt P51449)    YES
5            O=C(O)c1cc(-c2ccc(F)cc2F)ccc1O  Nuclear receptor ROR-gamma (Homo sapiens) (UniProt P51449)     NO

What was the test verdict on CC(C)(C)C1CCC(=O)CC1 ?
NO

Can you look up the reported call for CCCC(=O)OCCc1ccccc1 for me?
NO

Recorded call for CCCCC(CC)COC(=O)CCCCC(=O)OCc1ccccc1 (stereo unspecified) ?
NO

Returns: the outcome recorded for CC(=O)Oc1cc2c(s1)CCN(C(C(=O)C1CC1)c1ccccc1F)C2 (stereo unspecified) in this assay.
NO

Which outcome was entered for the molecule CCC(CC)(CC(=O)Nc1cccc(/C=C/c2nc(C3CCC3)cs2)c1)C(=O)O in this test?
NO

* * *

Biological target: Thyrotropin receptor (Homo sapiens) (UniProt P16473)
Sequence (P16473 whole entry, looked up): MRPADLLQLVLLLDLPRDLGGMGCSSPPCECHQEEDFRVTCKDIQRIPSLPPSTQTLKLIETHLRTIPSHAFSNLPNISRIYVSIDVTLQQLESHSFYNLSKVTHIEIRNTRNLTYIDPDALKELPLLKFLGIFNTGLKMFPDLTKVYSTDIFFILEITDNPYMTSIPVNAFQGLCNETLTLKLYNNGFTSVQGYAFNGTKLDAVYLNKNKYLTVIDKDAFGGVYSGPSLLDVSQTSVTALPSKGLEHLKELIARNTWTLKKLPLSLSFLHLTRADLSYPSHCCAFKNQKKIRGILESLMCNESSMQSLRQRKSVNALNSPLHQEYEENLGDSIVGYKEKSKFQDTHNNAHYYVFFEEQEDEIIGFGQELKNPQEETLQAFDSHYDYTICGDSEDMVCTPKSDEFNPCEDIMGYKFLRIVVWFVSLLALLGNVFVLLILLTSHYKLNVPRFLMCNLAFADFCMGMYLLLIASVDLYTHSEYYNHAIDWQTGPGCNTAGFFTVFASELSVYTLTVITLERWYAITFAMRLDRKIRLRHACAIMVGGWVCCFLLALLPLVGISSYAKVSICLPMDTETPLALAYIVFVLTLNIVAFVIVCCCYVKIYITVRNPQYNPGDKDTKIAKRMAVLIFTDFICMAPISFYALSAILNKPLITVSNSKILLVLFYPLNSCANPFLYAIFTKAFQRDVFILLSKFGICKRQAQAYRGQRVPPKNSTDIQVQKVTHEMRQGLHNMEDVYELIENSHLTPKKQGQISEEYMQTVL
Assay: qHTS assay to identify small molecule agonists of the thyroid stimulating hormone receptor (TSHR) signaling pathway (AID 1224843); also: % is scaled to controls: 0 for no effect and ±100 for the full control effect; nearly all actives have a fitted effect of over 45% in size
Conditions: TSHR-HEK293 cells, cAMP HTRF, agonist mode, 30 min; series mostly up to 92.4 µM
Records with an inconclusive call do not appear. Calls of active or inactive are those of the source. Calls come from the whole dose curve.
PROPERTY: activation

                               query_smiles                  test_result
0             Cc1cccc(C)c1NC(=O)c1ccc(N)cc1                     inactive
1              Nc1nc2c(ncn2COCCO)c(=O)[nH]1                     inactive
2  C[C@H]1NCc2cc(-c3ccc4c(=O)c(C(=O)O)cn(C5CC5)c4c3OC(F)F)ccc21  2.59% [at 19 µM] (inactive)
3                      Cc1ccc(-c2ccccc2)cc1                     inactive
4  COc1cc(S(=O)(=O)O)c(C)cc1N=Nc1c(O)ccc2cc(S(=O)(=O)O)ccc12                     inactive

Now take the following compound into account.
Field: activation (Thyrotropin receptor (Homo sapiens) (UniProt P16473)). Entry: O=C(O)O
2.41% [at 8.39 µM] (inactive)

* * *

Assay: qHTS assay to identify small molecule antagonists of the androgen receptor (AR) signaling pathway using the MDA cell line in the presence of 0.5 nM R1881 - cell viability counter screen (AID 1259242); also: nearly all actives have a fitted effect of over 45% in size
Settings: MDA-kb2 viability, CellTiter-Fluor protease fluorescence, 16 h; series mostly up to 92.4 µM
Results filed as inconclusive are left out. Calls of active or inactive are those of the source. Calls come from the whole dose curve; as a rule, active = well fitted cell-killing curve with a large enough effect in the repeat runs; inconclusive = weak or mixed curves, or effect the other way; inactive = flat fitted curve, though single readings scatter.
Answer with one of the outcomes given here: active, inactive

>>> df
                                   compound     label
0                    C=C(C)C(=O)OCCCCCCCCCC  inactive
1                       CC1=Nc2ccccc2C1(C)C  inactive
2  CC(C)=CCNc1ncnc2c1ncn2[C@@H]1O[C@H](CO)[C@@H](O)[C@H]1O  inactive
3                   C#Cc1ccc(-c2ccccc2F)cc1  inactive
4             CCCCC/C=C\C/C=C\CCCCCCCC(=O)O  inactive
5                            COc1cc(C)ccc1O  inactive
6  CC(C)(C)c1ccc(C(O)CCCN2CCC(C(O)(c3ccccc3)c3ccccc3)CC2)cc1 (stereo not given)    active
7                              Cc1ccc(C)cc1  inactive
8  CCOC(=O)Cn1cccc1-c1nc(-c2ccc(OC)cc2)c(-c2ccc(OC)cc2)s1  inactive
9                           CCCC1CCC(=O)CC1  inactive

Given CC(=O)OCC=C(C)C , state the outcome it received in this test.
inactive

Per the records of this test, what outcome belongs to Cc1cc(=O)oc2cc(O)cc(O)c12 ?
inactive

Please let me know the test result on file for CC1(C)[C@@H](O)CC[C@]2(C)[C@H]3C(=O)C=C4[C@@H]5C[C@@](C)(C(=O)O)CC[C@]5(C)CC[C@@]4(C)[C@]3(C)CC[C@@H]12 .
inactive

Which outcome was entered for the compound OC/C=C/CO in this test?
inactive

Test call, this compound: CC(C)(C)c1csc(-c2cc3cc(OCc4ccccc4CC(=O)O)ccc3o2)n1
inactive

Outcome? CCCCCc1ccc(Cl)cc1
inactive

I'd appreciate the recorded outcome for O=[N+]([O-])c1ccc(F)c(Cl)c1 from this test.
inactive

Any idea what this test logged for O=C(O)c1ccc2cc(C(=O)O)ccc2c1 ?
inactive

Can you look up the reported call for CC(=O)[C@H]1CC[C@H]2[C@@H]3CCC4=CC(=O)CC[C@]4(C)[C@H]3CC[C@]12C for me?
inactive

Lab log entry: CCO[Si](OCC)(OCC)OCC — outcome as called in the assay?
inactive
